Tested on: RXF 393 renal
test_protocol: NCI tumour cell line growth inhibition, 48 h
Listing of recorded TGI by entry.

compound: c1ccc2c(c1)nnn2CNc1ccc(N2CCOCC2)cc1
TGI: > 100 µM
//
compound: C=C1SC(=Nc2ccccc2Cl)N(C(=O)c2sc3ccccc3c2Cl)C1(C)C
TGI: > 86.5 µM
//
compound: COc1cc(C2SCC(=O)N2c2ccc(Cl)cc2)cc(I)c1O (stereo not given)
TGI: > 100 µM
//
compound: CC(C(=O)c1ccccc1)C1(O)C(=O)Nc2ccccc21 (stereo not given)
TGI: > 100 µM
//
compound: N#Cc1ccc(-c2nc3ccc(Cl)cc3[nH]2)cc1
TGI: > 100 µM

// data source = PubChem BioAssay (NCI)
